Target: Serine protease 1 (Bos taurus)
Sequence (P00760 whole entry): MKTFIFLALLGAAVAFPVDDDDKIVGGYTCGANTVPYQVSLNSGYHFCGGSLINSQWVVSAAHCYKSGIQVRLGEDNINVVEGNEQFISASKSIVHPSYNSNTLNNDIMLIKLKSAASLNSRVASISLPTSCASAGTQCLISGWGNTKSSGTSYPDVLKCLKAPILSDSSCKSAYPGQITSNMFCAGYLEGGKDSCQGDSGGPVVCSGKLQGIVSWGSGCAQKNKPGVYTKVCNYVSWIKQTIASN
For each record, write down the corresponding Ki.
State the value, then name its unit.

// known answers, use as guide
> print(dat)
                                 smiles.str  reported.measurement
1  CC1CCN(C(=O)[C@H](Cc2cccc(C(=N)N)c2)NS(=O)(=O)c2ccc3c(c2)C(=O)c2ccccc2C3=O)CC1                 74 nM
2  CC(C)c1cc(C(C)C)c(S(=O)(=O)N[C@@H](Cc2cccc(C(=N)N)c2)C(=O)N2CCN(S(C)(=O)=O)CC2)c(C(C)C)c1                979 nM
3  N=C(N)c1cccc(C[C@H](NS(=O)(=O)c2ccc3ccccc3c2)C(=O)N2CCOCC2)c1                210 nM
4  Cc1ccc(S(=O)(=O)N[C@@H](Cc2cccc(C(=N)N)c2)C(=O)N2CCC(C)CC2)cc1                520 nM
5  CS(=O)(=O)N1CCN(C(=O)[C@H](Cc2cccc(C(=N)N)c2)NS(=O)(=O)c2ccc3ccccc3c2)CC1                190 nM

For every record below, what is its Ki?
1. CNC(=O)C1CCN(C(=O)[C@H](Cc2cccc(C(=N)N)c2)NS(=O)(=O)c2ccc3ccccc3c2)CC1
2. N=C(N)c1cccc(C[C@H](NS(=O)(=O)c2ccc3ccccc3c2)C(=O)N2CCC(C(=O)O)CC2)c1
3. CN(C)c1cccc2c(S(=O)(=O)N[C@@H](Cc3cccc(C(=N)N)c3)C(=O)N3CCN(S(C)(=O)=O)CC3)cccc12
4. N=C(N)c1cccc(C[C@H](NS(=O)(=O)c2ccc3ccccc3c2)C(=O)N2CCCC[C@@H]2C(=O)O)c1

160 nM
579 nM
170 nM
631 nM

For every record below, what is its Ki?
1. N=C(N)c1cccc(C[C@H](NS(=O)(=O)c2ccc3ccccc3c2)C(=O)N2Cc3ccccc3C[C@@H]2C(=O)O)c1
2. CNC(=O)[C@H]1CCCN(C(=O)[C@H](Cc2cccc(C(=N)N)c2)NS(=O)(=O)c2c(C(C)C)cc(C(C)C)cc2C(C)C)C1
3. CC1CCN(C(=O)[C@H](Cc2cccc(C(=N)N)c2)NS(=O)(=O)c2cccc3ccccc23)CC1

["130 nM", "794 nM", "631 nM"]

For every record below, what is its Ki?
1. N=C(N)c1cccc(C[C@H](NS(=O)(=O)c2ccc3ccccc3c2)C(=O)N2CCCC2)c1
2. COC(=O)[C@H]1C[C@H](C)CCN1C(=O)[C@H](Cc1cccc(C(=N)N)c1)NS(=O)(=O)c1ccc2ccccc2c1

437 nM
2200 nM
